Molecular target: T1, rHuman P-Cadherin/Fc Chimera, CF (R&D Systems Cat#861-PC) (human, UniProt P22223 108-654)
T1 construct: Bought recombinant Fc chimera; Fc part of the bought chimera not given
Assay: ECL multispot (MSD), antigen spotted, Fab in solution;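 further: purified Fab incubated 1 h at 20 °C on antigen-spotted wells, bound Fab detected via TAG detection antibody, ECL compared with each well's blank, ratio of 4 or above scored as hit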
Catalogue of ECL signal readings, one per entry.
Hey, just send me the number, nothing else.

- binder: "Fab VH1-46_IGHD6-6*01_IGHJ1*01 S102A/S103P/S104F/H111F (APFF) & L6_IGKJ1*01 S30L (Fab, V domains shown, Fab; VH cloned into Plasmid A (CH1, His6 and Flag tags) and VL into Plasmid C (kappa CL); also called APFF / S30L) VH: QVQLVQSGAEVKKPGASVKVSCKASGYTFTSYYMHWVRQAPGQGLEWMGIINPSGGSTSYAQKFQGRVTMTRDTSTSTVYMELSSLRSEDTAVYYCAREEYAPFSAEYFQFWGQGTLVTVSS VL: EIVLTQSPATLSLSPGERATLSCRASQSVLSYLAWYQQKPGQAPRLLIYDASNRATGIPARFSGSGSGTDFTLTISSLEPEDFAVYYCQQRSNWPPWTFGQGTKVEIKR"
  measuredParameter: "ECL signal"
  measValue: 351
- binder: "Fab VH1-46_IGHD6-6*01_IGHJ1*01 S102A/S103P/S104F/H111F (APFF) & L6_IGKJ1*01 S28N (Fab, V domains shown, Fab; VH cloned into Plasmid A (CH1, His6 and Flag tags) and VL into Plasmid C (kappa CL); also called APFF / S28N) VH: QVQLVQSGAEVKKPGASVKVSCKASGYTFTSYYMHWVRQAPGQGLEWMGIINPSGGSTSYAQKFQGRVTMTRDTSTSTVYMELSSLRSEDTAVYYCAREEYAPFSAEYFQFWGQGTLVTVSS VL: EIVLTQSPATLSLSPGERATLSCRASQNVSSYLAWYQQKPGQAPRLLIYDASNRATGIPARFSGSGSGTDFTLTISSLEPEDFAVYYCQQRSNWPPWTFGQGTKVEIKR"
  measuredParameter: "ECL signal"
  measValue: 447
- binder: "Fab VH1-46_IGHD6-6*01_IGHJ1*01 S102A/S103P/S104F/H111F (APFF) & L6_IGKJ1*01 S30C (Fab, V domains shown, Fab; VH cloned into Plasmid A (CH1, His6 and Flag tags) and VL into Plasmid C (kappa CL); also called APFF / S30C) VH: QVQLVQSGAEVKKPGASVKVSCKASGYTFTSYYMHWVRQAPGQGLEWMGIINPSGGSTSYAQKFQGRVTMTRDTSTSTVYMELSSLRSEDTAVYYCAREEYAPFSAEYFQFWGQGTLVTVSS VL: EIVLTQSPATLSLSPGERATLSCRASQSVCSYLAWYQQKPGQAPRLLIYDASNRATGIPARFSGSGSGTDFTLTISSLEPEDFAVYYCQQRSNWPPWTFGQGTKVEIKR"
  measuredParameter: "ECL signal"
  measValue: 1690
- binder: "Fab VH1-46_IGHD6-6*01_IGHJ1*01 S102A/S103P/S104F/H111F (APFF) & L6_IGKJ1*01 S28R (Fab, V domains shown, Fab; VH cloned into Plasmid A (CH1, His6 and Flag tags) and VL into Plasmid C (kappa CL); also called APFF / S28R) VH: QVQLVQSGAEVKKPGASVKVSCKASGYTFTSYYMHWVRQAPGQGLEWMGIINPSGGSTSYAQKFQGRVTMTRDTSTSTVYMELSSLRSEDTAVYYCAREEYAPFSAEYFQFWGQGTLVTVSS VL: EIVLTQSPATLSLSPGERATLSCRASQRVSSYLAWYQQKPGQAPRLLIYDASNRATGIPARFSGSGSGTDFTLTISSLEPEDFAVYYCQQRSNWPPWTFGQGTKVEIKR"
  measuredParameter: "ECL signal"
  measValue: 395
- binder: "Fab VH1-46_IGHD6-6*01_IGHJ1*01 S102A/S103P/S104F/H111F (APFF) & L6_IGKJ1*01 S30D (Fab, V domains shown, Fab; VH cloned into Plasmid A (CH1, His6 and Flag tags) and VL into Plasmid C (kappa CL); also called APFF / S30D) VH: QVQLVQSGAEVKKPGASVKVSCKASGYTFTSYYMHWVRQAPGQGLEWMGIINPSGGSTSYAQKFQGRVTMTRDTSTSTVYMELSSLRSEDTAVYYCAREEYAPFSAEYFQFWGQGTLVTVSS VL: EIVLTQSPATLSLSPGERATLSCRASQSVDSYLAWYQQKPGQAPRLLIYDASNRATGIPARFSGSGSGTDFTLTISSLEPEDFAVYYCQQRSNWPPWTFGQGTKVEIKR"
  measuredParameter: "ECL signal"
  measValue: 543
- binder: "Fab VH1-46_IGHD6-6*01_IGHJ1*01 S102A/S103P/S104F/H111F (APFF) & L6_IGKJ1*01 S28W (Fab, V domains shown, Fab; VH cloned into Plasmid A (CH1, His6 and Flag tags) and VL into Plasmid C (kappa CL); also called APFF / S28W) VH: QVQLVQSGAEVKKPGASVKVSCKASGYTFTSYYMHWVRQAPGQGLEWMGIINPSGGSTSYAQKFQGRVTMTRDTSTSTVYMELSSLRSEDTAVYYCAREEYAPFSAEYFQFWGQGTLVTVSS VL: EIVLTQSPATLSLSPGERATLSCRASQWVSSYLAWYQQKPGQAPRLLIYDASNRATGIPARFSGSGSGTDFTLTISSLEPEDFAVYYCQQRSNWPPWTFGQGTKVEIKR"
  measuredParameter: "ECL signal"
  measValue: 385

Now turn to the next binder.
[in] State the recorded ECL signal for this entry: Fab VH1-46_IGHD6-6*01_IGHJ1*01 S102A/S103P/S104F/H111F (APFF) & L6_IGKJ1*01 S28M (Fab, V domains shown, Fab; VH cloned into Plasmid A (CH1, His6 and Flag tags) and VL into Plasmid C (kappa CL); also called APFF / S28M) VH: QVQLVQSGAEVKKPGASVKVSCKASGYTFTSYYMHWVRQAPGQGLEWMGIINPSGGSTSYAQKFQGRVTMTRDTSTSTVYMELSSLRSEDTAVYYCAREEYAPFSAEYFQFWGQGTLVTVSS VL: EIVLTQSPATLSLSPGERATLSCRASQMVSSYLAWYQQKPGQAPRLLIYDASNRATGIPARFSGSGSGTDFTLTISSLEPEDFAVYYCQQRSNWPPWTFGQGTKVEIKR
[out] 410
